SYSTEM_UNDER_TEST: T1, Recombinant DR3-Fc (R&D Systems, cat. #943-D3) (UniProt Q93038 25-199, limits assumed)
T1 construct: dimeric MW~92 kDa; also called DR3 receptor; Fc-DR3; not shown: Fc part of the bought fusion
T1 sequence (looked up): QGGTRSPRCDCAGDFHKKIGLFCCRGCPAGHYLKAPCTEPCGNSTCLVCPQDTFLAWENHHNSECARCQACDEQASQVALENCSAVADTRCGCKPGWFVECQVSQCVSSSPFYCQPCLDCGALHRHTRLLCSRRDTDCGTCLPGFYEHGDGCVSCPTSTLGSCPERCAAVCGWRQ
ASSAY_REMARKS: ELISA, DR3-Fc immobilized
MEASURE_NAME: Rel EC50 (ratio)
Output spec: scalar in ratio, unitless text.

Below, each entry is followed by its recorded Rel EC50 result.
| BINDER | REPORTED_RESULT |
| --- | --- |
| TL1W45 (His-TEV-TL1A E190F) (ligand, also called TL1W45 (E190F)) HHHHHHENLYFQGLKGQEFAPSHQQVYAPLRADGDKPRAHLTVVRQTPTQHFKNQFPALHWEHELGLAFTKNRMNYTNKFLLIPESGDYFIYSQVTFRGMTSECSEIRQAGRPNKPDSITVVITKVTDSYPFPTQLLMGTKSVCEVGSNWFQPIYLGAMFSLQEGDKLMVNVSDISLVDYTKEDKTFFGAFLL | 1.2 |
| TL1W95 (His-TEV-TL1A Q167A) (ligand, also called TL1W95 (Q167A)) HHHHHHENLYFQGLKGQEFAPSHQQVYAPLRADGDKPRAHLTVVRQTPTQHFKNQFPALHWEHELGLAFTKNRMNYTNKFLLIPESGDYFIYSQVTFRGMTSECSEIRAAGRPNKPDSITVVITKVTDSYPEPTQLLMGTKSVCEVGSNWFQPIYLGAMFSLQEGDKLMVNVSDISLVDYTKEDKTFFGAFLL | 0.7 |
| TL1W109 (His-TEV-TL1A S187L) (ligand, also called TL1W109 (S187L)) HHHHHHENLYFQGLKGQEFAPSHQQVYAPLRADGDKPRAHLTVVRQTPTQHFKNQFPALHWEHELGLAFTKNRMNYTNKFLLIPESGDYFIYSQVTFRGMTSECSEIRQAGRPNKPDSITVVITKVTDLYPEPTQLLMGTKSVCEVGSNWFQPIYLGAMFSLQEGDKLMVNVSDISLVDYTKEDKTFFGAFLL | 0.7 |

Query Rel EC50 for TL1W80 (His-TEV-TL1A K111A) (ligand, also called TL1W80 (K111A)) HHHHHHENLYFQGLKGQEFAPSHQQVYAPLRADGDKPRAHLTVVRQTPTQHFANQFPALHWEHELGLAFTKNRMNYTNKFLLIPESGDYFIYSQVTFRGMTSECSEIRQAGRPNKPDSITVVITKVTDSYPEPTQLLMGTKSVCEVGSNWFQPIYLGAMFSLQEGDKLMVNVSDISLVDYTKEDKTFFGAFLL
1.1

Output measured Rel EC50 for this item: TL1W2 (His-TEV-hTL1A 72-251) (ligand, Non-covalent trimer; entry holds the His-TEV tag; also called His-TL1A; His-TL1A (TL1W2)) HHHHHHENLYFQGLKGQEFAPSHQQVYAPLRADGDKPRAHLTVVRQTPTQHFKNQFPALHWEHELGLAFTKNRMNYTNKFLLIPESGDYFIYSQVTFRGMTSECSEIRQAGRPNKPDSITVVITKVTDSYPEPTQLLMGTKSVCEVGSNWFQPIYLGAMFSLQEGDKLMVNVSDISLVDYTKEDKTFFGAFLL
1

Identify measured Rel EC50 associated with TL1W122 (His-TEV-TL1A N207F) (ligand, also called TL1W122 (N207F)) HHHHHHENLYFQGLKGQEFAPSHQQVYAPLRADGDKPRAHLTVVRQTPTQHFKNQFPALHWEHELGLAFTKNRMNYTNKFLLIPESGDYFIYSQVTFRGMTSECSEIRQAGRPNKPDSITVVITKVTDSYPEPTQLLMGTKSVCEVGSFWFQPIYLGAMFSLQEGDKLMVNVSDISLVDYTKEDKTFFGAFLL
1.2
